# measurement.notes: chemical genetic growth profiling, strain panel (AID 1159580);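 further: tested at 20 µM; growth read once vehicle control cultures reached saturation at 30 °C; 1 = growth at the plate median or of vehicle wells; lower values mean less growth of the strain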
# measurement.setup: S. cerevisiae deletion strains, growth OD, locus YGL086W, strain mad1, stronger effect = lower value
Among all 5,500 compounds or so, about 2,000 (36%) were called active. About 18% were inconclusive and are not listed. This is one part of the list.
assay.readout: normalized growth
Answer as a number with no unit attached.

Look over these answered cases.
NCC(CC(=O)O)c1ccc(Cl)cc1 (configuration not stated)
0.988
O=C(O)CCCOc1ccc(Cl)cc1Cl
0.99
NC(N)=NCCCC(NC(=O)C(N)Cc1ccc(O)cc1)C(=O)O (configuration not stated)
0.981

Query: Name the recorded normalized growth for COC(=O)CCCOc1ccc(Cl)cc1Cl .
Result: 0.991

Query: Report normalized growth for CN(C(=O)CN(CCO)CC(=O)N(C)C(C)(C)Cc1ccccc1)C(C)(C)Cc1ccccc1 please.
Result: 0.979

Query: Look at this molecule and give its reported normalized growth. CC1=C2[C@H]3OC(=O)[C@@H](C)[C@@H]3CC[C@@]2(C)C=CC1=O
Result: 1.01

Query: Return reported normalized growth; argument: CN(C)CCOC(=O)C(c1ccccc1)C1(O)CCCC1 (configuration not stated)
Result: 1.02

---

# measurement.notes: chemical genetic growth profiling, strain panel (AID 1159580);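 further: tested at 20 µM; growth read once vehicle control cultures reached saturation at 30 °C; 1 = growth at the plate median or of vehicle wells; lower values mean less growth of the strain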
# measurement.setup: S. cerevisiae deletion strains, growth OD, locus YJL154C, strain vps35, stronger effect = lower value
Hit rate of the full screen: of about 5,500 compounds, about 2,000 (36%) were called active. Roughly 18% stayed inconclusive and do not appear here. The list shows a part of the results.
Listed here are compounds together with their documented normalized growth.

# annotated cases, reported normalized growth shown
N[C@@H]1[C@@H](O)[C@H](O)[C@@H](CO)O[C@H]1O
1.02 (inactive)
CC(=O)N=c1sc(S(N)(=O)=O)nn1C
1 (inactive)
NS(=O)(=O)c1cc2c(cc1Cl)NC(C1CC3C=CC1C3)NS2(=O)=O (stereo not given)
0.988 (inactive)
Nc1ccncc1
0.992 (inactive)
CO[C@]12C[C@@H](COC(=O)c3cncc(Br)c3)CN(C)[C@@H]1Cc1cn(C)c3cccc2c13
0.981 (inactive)

Query: Value lookup for normalized growth; key = CC1(C)C(O)CC(O)C2(C)C1CC(O)C1(C)C2CCC2(C)C(c3ccoc3)OC(=O)C3OC321 (stereo not given)
Result: 0.991 (inactive)

Query: Entry COc1c2ccccc2nc2occc12 : reported normalized growth = ?
Result: 0.979 (inactive)

Query: Look up normalized growth for this compound: CC(=O)Nc1ccccc1
Result: 0.975 (inactive)

Query: I have this compound here, CC(=O)Nc1nnc(S(N)(=O)=O)s1 , and I need its recorded normalized growth.
Result: 1.02 (inactive)

Query: For the compound shown here, C=C[C@H]1CN2CC[C@H]1C[C@@H]2[C@H](O)c1ccnc2ccccc12 , give the reported normalized growth.
Result: 0.971 (inactive)

---

# measurement.notes: chemical genetic growth profiling, strain panel (AID 1159580);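 further: tested at 20 µM; growth read once vehicle control cultures reached saturation at 30 °C; 1 = growth at the plate median or of vehicle wells; lower values mean less growth of the strain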
# measurement.setup: S. cerevisiae deletion strains, growth OD, locus YLL041C, strain sdh2, stronger effect = lower value
The whole screen tested about 5,500 compounds, of which about 2,000 (36%) were called active. Roughly 18% stayed inconclusive and do not appear here. The list shows a part of the results.
Below, each entry is listed alongside its reported normalized growth.

Query: Look up normalized growth: CCN(CC)CCOC(=O)C(c1ccccc1)c1ccccc1
Result: 0.974 (inactive)

Query: Look up normalized growth for this molecule: O=c1cc(-c2cc(O)c(O)c(O)c2)oc2cc(O)cc(O)c12
Result: 1 (inactive)

Query: Look up normalized growth for this molecule: C/C=C/C(=O)N(CC)c1ccccc1C
Result: 1.01 (inactive)

Query: Recorded normalized growth of C=Cc1c(C)c2[n-]c1=Cc1[n-]c(c(CC)c1C)C=c1[n-]c3c(c1C)C(=O)C(C(=O)[O-])C=3c1[n-]c(c(C)c1CCC(=O)[O-])C=2.[Cu] (centres undefined) , please.
Result: 1.08 [resistant] (active)

Query: Param item = CSc1ccc2c(c1)N(CCC1CCCCN1C)c1ccccc1S2 (centres undefined) ; retrieve measured normalized growth.
Result: 0.976 (inactive)
